- Target Or System: T1, human SIRPα variant 1 (human, UniProt P78324 31-504)
- T1 construct: full length ORF on transfected CHO-K1 or HEK293 cells; entry includes the signal peptide; also called hSIRPαV1; SIRPαV1
- T1 sequence (P78324 31-504 limits assumed, change not shown): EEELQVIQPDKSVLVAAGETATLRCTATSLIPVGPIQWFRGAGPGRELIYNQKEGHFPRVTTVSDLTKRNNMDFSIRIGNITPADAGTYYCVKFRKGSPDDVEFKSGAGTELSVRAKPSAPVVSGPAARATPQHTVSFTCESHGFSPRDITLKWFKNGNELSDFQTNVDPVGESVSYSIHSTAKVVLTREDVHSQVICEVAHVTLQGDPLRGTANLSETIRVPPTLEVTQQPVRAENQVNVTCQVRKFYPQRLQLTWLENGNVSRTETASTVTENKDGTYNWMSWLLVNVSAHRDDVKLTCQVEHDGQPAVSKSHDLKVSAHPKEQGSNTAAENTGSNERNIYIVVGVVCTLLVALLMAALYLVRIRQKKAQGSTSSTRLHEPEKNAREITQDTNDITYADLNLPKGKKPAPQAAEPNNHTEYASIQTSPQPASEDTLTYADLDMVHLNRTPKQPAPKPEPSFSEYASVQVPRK
- Method Notes: CELISA, CHO-K1 transfectants
Quick reference: pEC50 of the listed items.
A value of pEC50 is the negative decimal logarithm of a concentration given in moles per litre.

// below: answered binders
hSIRPα.40A (antibody, mouse IgG1, kappa, V domains shown, mouse antibody, full chains without signal peptide; also called mouse hSIRPα.40A) VH: EVQFQQSGTVLARPGTSVKMSCKASGSTFTSYWMHWVKQGPGQGLQWIGAIYPVNNDTTYNQKFKGKAELTVVTSTSTAYMEVSSLTNEDSAVYYCTRSFYYSLDAAWFVYWGQGTLVTVSA VL: DIQMTQSPSSLSASLGERVSLTCRASQDIGSRLNWLQQEPDGTIKRLIYATSSLDSGVPKRFSGSRSGSDYSLTISGLESEDFVDYYCLQYASSPFTFGGGTKLEINR    10.28
hSIRPα.50A (antibody, V domains shown, light chain constant domain not tied; also called mouse hSIRPα.50A; hSIRPα.50A.mIgG1) VH: QVQLQQSGPELVKPGASVRISCKASGFTFTNYYIHWVKQRPGQGLEWIGWIYPGNVNTKYNEKFKAKATLTADKSSTTAYMQLSSLASEDSAVYFCARPTIIATDFDVWGAGTTVTVSS VL: DIVMTQSHKFMSTSVGDRVNITCKASQGVGTAVGWYQQKPGQSPRLLIYWASTRHTGVPDRFTGSGSGTDFSLAISNVQSEDLADYFCQQYSTYPFTFGGGTNLEIK    9.51
18D5 (antibody, V domains shown, from WO2017/178653; also called clone 18D5) VH: QVQLQQPGAELVRPGSSVKLSCKASGYTFTSYWVHWVKQRPIQGLEWIGNIDPSDSDTHYNQKFKDKASLTVDKSSSTAYMQLSSLTFEDSAVYYCVRGGTGTMAWFAYWGQGTLVTVSA VL: DVVMTQTPLSLPVSLGDQASISCRSSQSLVHSYGNTYLYWYLQKPGQSPKLLIYRVSNRFSGVPDRFSGSGSGTDFTLKISRVEAEDLGVYFCFQGTHVPYTFGSGTKLEIK    9.89

Kindly consider the entry below.
Any idea what pEC50 was measured for KWAR23 (antibody, V domains shown) VH: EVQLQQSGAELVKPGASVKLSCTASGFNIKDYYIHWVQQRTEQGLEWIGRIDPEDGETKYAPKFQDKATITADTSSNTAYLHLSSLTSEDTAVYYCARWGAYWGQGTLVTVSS VL: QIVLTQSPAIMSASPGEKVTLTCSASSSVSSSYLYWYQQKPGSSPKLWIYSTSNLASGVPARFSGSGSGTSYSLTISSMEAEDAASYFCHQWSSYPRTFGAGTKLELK ?
9.87
